# System: SK-MEL-5 TRPM1 promoter luciferase, 24 h
# Assay Details: MITF transcriptional reporter enhancement – cell-based, SK-MEL-5, luciferase, dry powder, dose response (AID 651775)
Could you please report measured AC40 for the items listed next?

Request: Let me know recorded AC40 for "c1ccc(-c2ccc(-c3cnc4n3CCCCC4)cc2)cc1" , thanks.
Response: 2290 nM

Request: Let me know recorded AC40 for "CC(C)(C)C(=O)N1CCN(c2nc3ccccc3s2)CC1" , thanks.
Response: 912 nM

Request: Let me know recorded AC40 for "C/C(=N\OCc1ccc(C#N)cc1)c1ccc(S(=O)(=O)N(C)C)cc1" , thanks.
Response: 7800 nM

Request: Let me know recorded AC40 for COC(=O)C(C)N1C(=O)S/C(=C/c2cc(C)n(C(C)C)c2C)C1=O (stereo not drawn) , thanks.
Response: 541 nM

Request: Let me know recorded AC40 for "COc1ccc(NC(=O)c2ccc3[nH]c(C)c(C)c3c2)cc1" , thanks.
Response: 1930 nM

Request: Let me know recorded AC40 for "Cc1cc2ncc(-c3ccc(Cl)cc3)c(N)n2n1" , thanks.
Response: 1770 nM

Request: Let me know recorded AC40 for "Cc1ccc(NC(=O)c2ccc3ccccc3n2)cc1S(=O)(=O)N(C)C" , thanks.
Response: 462 nM

Request: Let me know recorded AC40 for "C=CCNc1nc(-c2ccc(Cl)cc2)cs1" , thanks.
Response: 219 nM

Request: Let me know recorded AC40 for COc1cccc(NC(=O)C(=O)NCCC2CCCCN2S(=O)(=O)c2cccs2)c1 (stereo not drawn) , thanks.
Response: 2070 nM

Request: Let me know recorded AC40 for "Cc1nn2c(-c3ccccc3)ccnc2c1-c1ccccc1" , thanks.
Response: 824 nM

Request: Let me know recorded AC40 for "CCCN(CCC)c1ncnc2c1cnn2-c1ccc(OC)cc1" , thanks.
Response: 39 nM

Request: Let me know recorded AC40 for "c1ccc(CSc2ccc(-c3ccc4c(c3)OCO4)nn2)cc1" , thanks.
Response: 974 nM

Request: Let me know recorded AC40 for "CC(=O)Nc1nnc(COc2ccc(Cl)cc2)s1" , thanks.
Response: 589 nM

Request: Let me know recorded AC40 for "O=C(Nc1cccc(F)c1)NC1CCCCCCC1" , thanks.
Response: 984 nM

Request: Let me know recorded AC40 for "O=C(Oc1ccc2ccccc2c1Cl)N1CCCCCC1" , thanks.
Response: 113 nM

Request: Let me know recorded AC40 for "COc1cc(/C=N/O)ccc1OCc1ccccc1Cl" , thanks.
Response: 180 nM

Request: Let me know recorded AC40 for "c1ccc2c(Nc3nnc(-c4ccncc4)s3)cccc2c1" , thanks.
Response: 1130 nM

Request: Let me know recorded AC40 for "Fc1ccccc1COc1ccc(C(=S)N2CCCC2)cc1" , thanks.
Response: 1320 nM

Request: Let me know recorded AC40 for "O=C(NCCc1cccs1)c1ccc(Cl)c(Cl)c1" , thanks.
Response: 615 nM

Request: Let me know recorded AC40 for "CSc1nc2ccc(NC(=O)c3cccs3)cc2s1" , thanks.
Response: 465 nM

Request: Let me know recorded AC40 for "CCN(CC)c1ccc(Nc2nc(-c3cccnc3)cs2)cc1" , thanks.
Response: 515 nM

Request: Let me know recorded AC40 for "COc1ccc(C(=O)NCCn2ccc3ccccc32)cc1" , thanks.
Response: 531 nM

Request: Let me know recorded AC40 for "Cc1ccc(C(=O)Nc2cccc(O)c2)cc1S(=O)(=O)N1CCCCCC1" , thanks.
Response: 1010 nM
